We begin with a simple list: items and their reported OX1 pKi (SPA binding).
# Study system: UniProt:O43613
# Sequence (O43613 whole entry): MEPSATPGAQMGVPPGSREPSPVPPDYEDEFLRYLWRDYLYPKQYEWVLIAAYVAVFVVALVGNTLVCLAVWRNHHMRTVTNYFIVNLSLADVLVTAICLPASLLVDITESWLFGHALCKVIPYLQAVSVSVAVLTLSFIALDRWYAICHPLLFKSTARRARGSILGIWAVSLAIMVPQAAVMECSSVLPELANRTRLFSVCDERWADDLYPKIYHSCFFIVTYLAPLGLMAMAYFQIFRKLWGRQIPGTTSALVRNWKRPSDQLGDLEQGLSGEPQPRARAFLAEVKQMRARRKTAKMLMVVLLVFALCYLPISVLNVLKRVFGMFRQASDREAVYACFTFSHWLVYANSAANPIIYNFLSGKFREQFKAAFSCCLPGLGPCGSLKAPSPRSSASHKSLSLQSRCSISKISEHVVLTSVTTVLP
# Test details: Scintillation Proximity Assay (SPA) binding assay, [3H]SB-674042 displacement, CHO-hOX1 membranes
# Condition notes: Table 2, [3H]SB-674042 2 nM
Value kind: OX1 pKi (SPA binding)

molecule="C[C@@H]1C2CC(C2)N(C(=O)c2cc(Cl)ccc2-n2nccn2)C1CNc1nc2cccnc2o1 (mixture of isomers) [Example 242]" study_system=UniProt:O43613 value_kind="OX1 pKi (SPA binding)" readout_number=8.1
molecule="Cc1nc(C(=O)N2C3CC(C3)[C@H](C)C2COc2ccc(F)cc2)c(-c2cnccn2)s1 (mixture of isomers)" study_system=UniProt:O43613 value_kind="OX1 pKi (SPA binding)" readout_number=7.36
molecule="C[C@@H]1C2CC(C2)N(C(=O)c2nn(C)cc2-c2ncccn2)C1CNc1cnc(C(F)(F)F)cn1 (mixture of isomers)" study_system=UniProt:O43613 value_kind="OX1 pKi (SPA binding)" readout_number=7.55
molecule="Cc1ccc(-n2nccn2)c(C(=O)N2C3CC(C3)[C@@H](C)C2CNc2cnc(C(F)(F)F)cn2)n1 (single isomer, unassigned) [Example 166]" study_system=UniProt:O43613 value_kind="OX1 pKi (SPA binding)" readout_number=6.99
molecule="Cc1ccc(-n2nccn2)c(C(=O)N2C3CC(C3)[C@@H](C)C2CNc2ccc(C(F)(F)F)cn2)n1 (mixture of isomers) [Example 181]" study_system=UniProt:O43613 value_kind="OX1 pKi (SPA binding)" readout_number=8.09
molecule="Cc1cnc(-c2ccc(C)nc2C(=O)N2C3CC(C3)[C@@H](C)C2COc2ccc(F)cc2)nc1 (mixture of isomers)" study_system=UniProt:O43613 value_kind="OX1 pKi (SPA binding)" readout_number=8.08
molecule="Cc1ccc(-n2cccn2)c(C(=O)N2C3CC(C3)[C@H](C)C2COc2ccc(F)cc2)n1 (mixture of isomers)" study_system=UniProt:O43613 value_kind="OX1 pKi (SPA binding)" readout_number=7.22
molecule="Cc1ccc(-n2nccn2)c(C(=O)N2C3CC(C3)[C@@H](C)C2CNc2ccc(F)c(C)n2)n1 (mixture of isomers)" study_system=UniProt:O43613 value_kind="OX1 pKi (SPA binding)" readout_number=7.65
molecule="C[C@@H]1C2CC(C2)N(C(=O)c2cc(Cl)ccc2-n2nccn2)C1CNc1cnc(C2CC2)cn1 (stereo partly shown)" study_system=UniProt:O43613 value_kind="OX1 pKi (SPA binding)" readout_number=7.58
molecule="Cc1ccc(-n2nccn2)c(C(=O)N2C3CC(C3)[C@H](C)C2COc2ccc(Cl)cc2)n1 (single isomer, unassigned) [Example 120]" study_system=UniProt:O43613 value_kind="OX1 pKi (SPA binding)" readout_number=8
molecule="Cc1cnc(-n2nccn2)c(C(=O)N2C3CC(C3)[C@@H](C)C2COc2ccc(F)cc2)n1 (mixture of isomers)" study_system=UniProt:O43613 value_kind="OX1 pKi (SPA binding)" readout_number=7.03
molecule="C[C@@H]1C2CC(C2)N(C(=O)c2cc(F)ccc2-n2nccn2)C1CNc1ccc(C(F)(F)F)cn1 (mixture of isomers) [Example 190]" study_system=UniProt:O43613 value_kind="OX1 pKi (SPA binding)" readout_number=7.8
molecule="Cc1ccc(-n2nccn2)c(C(=O)N2C3CC(C3)[C@@H](C)C2CNc2nc3cccnc3s2)n1 (stereo partly shown) [Example 184]" study_system=UniProt:O43613 value_kind="OX1 pKi (SPA binding)" readout_number=8.08
molecule="Cc1cnn(-c2ccc(C)nc2C(=O)N2C3CC(C3)[C@@H](C)C2COc2ccc(F)cc2)c1 (mixture of isomers)" study_system=UniProt:O43613 value_kind="OX1 pKi (SPA binding)" readout_number=7.78
molecule="Cc1ccc(-c2ncccn2)c(C(=O)N2C3CC(C3)[C@@H](C)C2CNc2cnc(C(F)(F)F)cn2)n1 (mixture of isomers) [Example 248]" study_system=UniProt:O43613 value_kind="OX1 pKi (SPA binding)" readout_number=7.76
molecule="Cc1nc(C(=O)N2C3CC(C3)[C@@H](C)C2COc2ccc(F)cc2)c(-c2cnccn2)s1 (mixture of isomers)" study_system=UniProt:O43613 value_kind="OX1 pKi (SPA binding)" readout_number=7.26
molecule="Cc1ccc(-n2nccn2)c(C(=O)N2C3CC(C3)[C@@H](C)C2CNc2cnc(C(F)(F)F)cn2)c1 (single isomer, unassigned) [Example 256]" study_system=UniProt:O43613 value_kind="OX1 pKi (SPA binding)" readout_number=8.75
molecule="C[C@@H]1C2CC(C2)N(C(=O)c2cc(F)ccc2-n2nccn2)C1CNc1cnc(C(F)(F)F)cn1 (single isomer, unassigned) [Example 223]" study_system=UniProt:O43613 value_kind="OX1 pKi (SPA binding)" readout_number=8.13
molecule="Cc1ccc(-c2ncc(C(F)(F)F)cn2)c(C(=O)N2C3CC(C3)[C@@H](C)C2COc2ccc(F)cc2)n1 (mixture of isomers)" study_system=UniProt:O43613 value_kind="OX1 pKi (SPA binding)" readout_number=7.25
molecule="C[C@@H]1C2CC(C2)N(C(=O)c2cc(Cl)ccc2-n2nccn2)C1CNc1ncc(C2CC2)cn1 (stereo partly shown)" study_system=UniProt:O43613 value_kind="OX1 pKi (SPA binding)" readout_number=7.66
molecule="C[C@@H]1C2CC(C2)N(C(=O)c2cc(Cl)ccc2-n2nccn2)C1CNc1cnc2cc(F)ccc2n1 (single isomer, unassigned) [Example 209]" study_system=UniProt:O43613 value_kind="OX1 pKi (SPA binding)" readout_number=8.74
molecule="Cc1nc(C(=O)N2C3CC(C3)[C@H](C)C2COc2ccc(F)cn2)c(-c2ncccn2)s1 (mixture of isomers)" study_system=UniProt:O43613 value_kind="OX1 pKi (SPA binding)" readout_number=7.32
molecule="Cc1ccc(-n2nccn2)c(C(=O)N2C3CC(C3)[C@@H](C)C2CNc2cccc(C(F)(F)F)n2)n1 (mixture of isomers)" study_system=UniProt:O43613 value_kind="OX1 pKi (SPA binding)" readout_number=6.99
molecule="Cc1ccc(-n2ncc(C)n2)c(C(=O)N2C3CC(C3)[C@H](C)C2COc2ccc(F)cc2)n1 (mixture of isomers)" study_system=UniProt:O43613 value_kind="OX1 pKi (SPA binding)" readout_number=7.91
molecule="Cc1ccc(-n2nccn2)c(C(=O)N2C3CC(C3)[C@@H](C)C2COc2ccc(F)cn2)n1 (mixture of isomers)" study_system=UniProt:O43613 value_kind="OX1 pKi (SPA binding)" readout_number=6.9
